protein stability index reference
B1: SCNN1D (parent)
chain: RRPSPVLRHLELLDEFARENIDSL

Variants of: B1
PROTOCOL: protein stability index of a GFP-peptide fusion (GPS, HEK-293T) (PSI 1-6); higher = more stable;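 also: lentivirally expressed fusions sorted by FACS into six bins by GFP to DsRed ratio, PSI derived from sequencing read proportions per bin multiplied by bin number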
MEASUREMENT CONTEXT: c terminus: a fixed tail appended
Format: numeric value only, no unit, no commentary.

These solved cases illustrate the format of a correct answer.
SEQ	MEASURED METRIC	EXPERIMENTAL RESULT
RRPSPVLRHLELLDEFNRENIDSL [A17N]	protein stability index	4.14
RRPSPVLRHLELIDEFARENIDSL [L13I]	protein stability index	3.73
MRPSPVLRHLELLDEFARENIDSL [R1M]	protein stability index	2.19
RRPSPVLSHLELLDEFARENIDSL [R8S]	protein stability index	3.77
RRPSPVLRHLELLDDFARENIDSL [E15D]	protein stability index	3.21
RRISPVLRHLELLDEFARENIDSL [P3I]	protein stability index	1.96
RRPSPVLRHLELLDEFARENIDSK [L24K]	protein stability index	3.29
NRPSPVLRHLELLDEFARENIDSL [R1N]	protein stability index	2.5
RRPSPVLRHLELLDEFAREKIDSL [N20K]	protein stability index	3.34
RRPSTVLRHLELLDEFARENIDSL [P5T]	protein stability index	3.05

Requested read-out: protein stability index. Entry: RRPSPVLRHLELLDEFARENDDSL [I21D]
3.36

Requested read-out: protein stability index. Entry: RRPSPVLRHLELLDEFAREQIDSL [N20Q]
2.08

Requested read-out: protein stability index. Entry: RRPYPVLRHLELLDEFARENIDSL [S4Y]
2.5

Requested read-out: protein stability index. Entry: RMPSPVLRHLELLDEFARENIDSL [R2M]
2.5

Requested read-out: protein stability index. Entry: RRPSPVLRVLELLDEFARENIDSL [H9V]
2.4

Requested read-out: protein stability index. Entry: RRPSPVLRHLELHDEFARENIDSL [L13H]
4.31

Requested read-out: protein stability index. Entry: ERPSPVLRHLELLDEFARENIDSL [R1E]
3.36

Requested read-out: protein stability index. Entry: RRPSPVLRHLELLDEFARWNIDSL [E19W]
1.82

Requested read-out: protein stability index. Entry: RRPSPVLTHLELLDEFARENIDSL [R8T]
3.59
